Tested on: HME-TERT-EGFR (del E746-A750) cells
Assay: MTS cell proliferation assay, HME-TERT cells carrying EGFR mutation
Type: cell-based, human
Settings: Homo sapiens; HME-TERT-EGFR (del E746-A750), MTS, 120 h, 0.5% FBS; read-out: Inhibition of cell proliferation: EC50, EGFR
Hi there, I'd appreciate the recorded EC50 for every entry that follows.

Recorded result, CN(C)C(=N)N=C(N)N [metformin] , EC50: > 3000 µM

Recorded result, N=C(N)NC(=N)NCCc1ccccc1 [phenformin] , EC50: 393 µM
